// values below are reported inhibition
- SYSTEM: Inhibitor of nuclear factor kappa-B kinase subunit beta (Homo sapiens)
- ASSAY_COMMENT: Inhibition of IKKbeta in human HeLa cells assessed as inhibition of TPA-induced NFkappaB activation at 10 uM incubated for 1 hr prior to TPA-challenge measured after 8 hrs by luciferase reporter gene assay
- Format: cell-based
Report only the number, with the unit % understood.

Previously resolved entries follow.
CN1CCN(CCCOc2ccc(N3C(=O)/C(=C/c4ccc(Oc5cccc(C(N)=O)c5)cc4)SC3=S)cc2)CC1 = 64.7
CCN(CC)CCOc1ccc(N2C(=O)/C(=C/c3ccc(Oc4cccc(C(N)=O)c4)cc3)SC2=S)cc1 = 57
CCN(CC)CCCOc1ccc(N2C(=O)/C(=C/c3ccc(Oc4ccc(C(N)=O)cc4)cc3)SC2=S)cc1 = 46.6

stdin: Item CCN(CC)CCCOc1ccc(N2C(=O)/C(=C/c3ccc(-c4ccc(C(N)=O)cc4)o3)SC2=S)cc1 has what recorded inhibition?
stdout: 57.4

stdin: Item NC(=O)c1cccc(Oc2ccc(/C=C3\SC(=S)N(c4ccc(OCCCN5CCCCC5)cc4)C3=O)cc2)c1 has what recorded inhibition?
stdout: 42.1

stdin: Item CN1CCN(CCCOc2ccc(N3C(=O)/C(=C/c4ccc(Oc5ccc(C(N)=O)cc5)cc4)SC3=S)cc2)CC1 has what recorded inhibition?
stdout: 65.4

stdin: Item CCN(CC)CCCOc1ccc(N2C(=O)/C(=C/c3ccc(Oc4cccc(C(N)=O)c4)cc3)SC2=S)cc1 has what recorded inhibition?
stdout: 39.3

stdin: Item CCN(CC)CCCOc1ccc(N2C(=O)/C(=C/c3ccc(-c4cccc(C(N)=O)c4)o3)SC2=S)cc1 has what recorded inhibition?
stdout: 59.1
